Test: Free energy of hydration by Polarizable Continuum Model (PCM)
Conditions: absolute error vs Exp (hydration)
Assign classes using reported PCM Error values and the ranges bucket A = under 0.9 kcal/mol, bucket B = from 0.9 kcal/mol up to 2 kcal/mol, bucket C = 2 kcal/mol and over, please.

Cc1cccc(O)c1 [m-cresol]	bucket B

input: Kindly identify the class of CCC(=O)CC [3-Pentanone] .
output: bucket A

input: Kindly identify the class of CCC(=O)OC [MethylPropionate] .
output: bucket A

====

Experiment: Free energy of hydration predicted with the QM-parameterized force field model (ARROW FF), classical MD and PIMD simulation in a water box
Conditions: Table 4; error of PIMD8 hydration free energy vs experiment
recorded_endpoint: water Arrow PIMD8 Error (kcal/mol)
The response must be a number in kcal/mol with no trailing unit.

Would you please look over these solved cases?
CCO	0.07
CO	0.35
CCCC	0.04
C	0.09
CCC(=O)O	0.25

input: Report water Arrow PIMD8 Error, nothing else, for this compound: `CC(=O)O`
output: 0.34

====

Experiment: CHEX/H2O partition coefficient (log D) predicted with the QM-parameterized force field model (ARROW FF)
Conditions: Table 3; absolute error of PIMD log D vs experiment
recorded_endpoint: log D Arrow PIMD Error
Simply state the number, no unit and no words.

CCCCOC(C)=O [ButylAcetate]	0.06
CCN	0.08
CCCC	0.17
Oc1ccccc1	0.21

input: Report log D Arrow PIMD Error, nothing else, for this molecule: `CCC(C)=O`
output: 0.21

====

Assay: CHEX/H2O partition coefficient (log D) predicted with the QM-parameterized force field model (ARROW FF)
Settings: Table 3; absolute error of PIMD log D vs experiment
Label condition met when log D Arrow PIMD Error is at or above 0.1; anything below gets condition not met.

CCC(=O)OC [MethylPropionate]	condition met

input: Entry CCCCC(C)=O [hexa2none] : is its log D Arrow PIMD Error no less than 0.1?
output: condition met

input: Entry c1ccc2ccccc2c1 [Napthalene] : is its log D Arrow PIMD Error no less than 0.1?
output: condition not met

input: Entry CC(C)=O [Acetone] : is its log D Arrow PIMD Error no less than 0.1?
output: condition met

input: Entry CCCS [Propanethiol] : is its log D Arrow PIMD Error no less than 0.1?
output: condition met

input: Entry Cc1cccc(O)c1 [m-cresol] : is its log D Arrow PIMD Error no less than 0.1?
output: condition not met

input: Entry Cc1ccccc1O [o-cresol] : is its log D Arrow PIMD Error no less than 0.1?
output: condition met

input: Entry Nc1ccccc1 [Aniline] : is its log D Arrow PIMD Error no less than 0.1?
output: condition met

====

Experiment: Free energy of solvation in cyclohexane predicted with the QM-parameterized force field model (ARROW FF), MD and PIMD
Settings: Table 4; error of MD cyclohexane solvation free energy vs experiment
recorded_endpoint: CHEX Arrow MD Error (kcal/mol)
The response must be a number in kcal/mol with no trailing unit.

Would you please look over these solved cases?
CCO	0.05
CC(C)C	0.33
CCCCN	0.06
CS	0.39
CCCC	0.46

input: Report CHEX Arrow MD Error, nothing else, for this compound: `Cc1c[nH]cn1`
output: 0.33

input: Report CHEX Arrow MD Error, nothing else, for this compound: `CC(=O)O`
output: 0.09

input: Report CHEX Arrow MD Error, nothing else, for this compound: CC(N)=O [Acetamide]
output: 0.63

====

Assay: CHEX/H2O partition coefficient (log D) predicted with the QM-parameterized force field model (ARROW FF)
Details: Table 3; absolute error of MD log D vs experiment
recorded_endpoint: log D Arrow MD Error
Simply state the number, no unit and no words.

Would you please look over these solved cases?
CC(C)=O [Acetone]	0.01
Cc1cccc(O)c1 [m-cresol]	0.65
CCC(C)=O [2-Butanone]	0.11

input: Report log D Arrow MD Error, nothing else, for this compound: CCCCC(C)=O [hexa2none]
output: 0.07

input: Report log D Arrow MD Error, nothing else, for this compound: CCC(=O)OC [MethylPropionate]
output: 0.84

input: Report log D Arrow MD Error, nothing else, for this compound: CCCCOC(C)=O [ButylAcetate]
output: 0.60

input: Report log D Arrow MD Error, nothing else, for this compound: CCN [ethylamine]
output: 0.69

input: Report log D Arrow MD Error, nothing else, for this compound: CCCC [Butane]
output: 0.18

input: Report log D Arrow MD Error, nothing else, for this compound: CCCS [Propanethiol]
output: 0.38

====

Assay: CHEX/H2O partition coefficient (log D) predicted with the QM-parameterized force field model (ARROW FF)
Catalogue of compounds with associated log D Arrow MD Error
Simply state the number, no unit and no words.

Would you please look over these solved cases?
CCCCN [butanamine]	0.81
Cc1ccc(O)cc1 [p-cresol]	0.73

input: Report log D Arrow MD Error, nothing else, for this compound: C [Methane]
output: 0.25

input: Report log D Arrow MD Error, nothing else, for this compound: CCSC [EthylMethylSulfide]
output: 0.27

input: Report log D Arrow MD Error, nothing else, for this compound: CCOC(C)=O [EthylAcetate]
output: 0.46

input: Report log D Arrow MD Error, nothing else, for this compound: CCCCCCCC [Octane]
output: 0.50

input: Report log D Arrow MD Error, nothing else, for this compound: CO [Methanol]
output: 0.10

input: Report log D Arrow MD Error, nothing else, for this compound: Cc1c[nH]c2ccccc12 [3-methyl-indole]
output: 1.29

input: Report log D Arrow MD Error, nothing else, for this compound: C1CCCCC1 [Cyclohexane]
output: 0.89

input: Report log D Arrow MD Error, nothing else, for this compound: O [Water]
output: 0.31

input: Report log D Arrow MD Error, nothing else, for this compound: CCC(=O)O [propionicacid]
output: 0.22

input: Report log D Arrow MD Error, nothing else, for this compound: CCC(=O)CC [3-Pentanone]
output: 0.32

input: Report log D Arrow MD Error, nothing else, for this compound: CN(C)C [trimethylamine]
output: 0.10

input: Report log D Arrow MD Error, nothing else, for this compound: CCCCC [Pentane]
output: 0.39

input: Report log D Arrow MD Error, nothing else, for this compound: CC(C)C [Isobutane]
output: 0.44

====

Experiment: CHEX/H2O partition coefficient (log D) predicted with the QM-parameterized force field model (ARROW FF)
Define the label as yes (1) when log D Arrow PIMD Error is strictly less than 0.2 and as no (0) in all remaining cases.

Please review the following examples before continuing.
O [Water]	yes (1)
CCSC [EthylMethylSulfide]	no (0)
CC(C)C [Isobutane]	yes (1)
CCCOC(C)=O [PropylAcetate]	no (0)

input: State whether 0.2 exceeds log D Arrow PIMD Error recorded for CCCCC [Pentane] .
output: yes (1)

input: State whether 0.2 exceeds log D Arrow PIMD Error recorded for CO [Methanol] .
output: no (0)

input: State whether 0.2 exceeds log D Arrow PIMD Error recorded for CCCCN [butanamine] .
output: yes (1)

input: State whether 0.2 exceeds log D Arrow PIMD Error recorded for C1CCCCC1 [Cyclohexane] .
output: no (0)

input: State whether 0.2 exceeds log D Arrow PIMD Error recorded for Cc1ccc(O)cc1 [p-cresol] .
output: yes (1)

====

Catalogue of molecules with associated water Arrow PIMD8 Error
Assay: Free energy of hydration predicted with the QM-parameterized force field model (ARROW FF), classical MD and PIMD simulation in a water box
Details: Table 3; absolute error of PIMD8 hydration free energy vs experiment
The response must be a number in kcal/mol with no trailing unit.

input: Report water Arrow PIMD8 Error, nothing else, for this molecule: CC(N)=O [Acetamide]
output: 0.06

input: Report water Arrow PIMD8 Error, nothing else, for this molecule: CCSCC [DiEthylSulfide]
output: 0.12

input: Report water Arrow PIMD8 Error, nothing else, for this molecule: `Cc1ccccc1O`
output: 0.28

input: Report water Arrow PIMD8 Error, nothing else, for this molecule: `CCOCC`
output: 0.10

input: Report water Arrow PIMD8 Error, nothing else, for this molecule: `C=C`
output: 0.19

====

Experiment: Free energy of hydration predicted with the QM-parameterized force field model (ARROW FF), classical MD and PIMD simulation in a water box
Settings: Table 5; error of Arrow PIMD8 hydration free energy vs experiment
recorded_endpoint: Arrow error

Would you please look over these solved cases?
CCO	0.07 kcal/mol
CSC [DiMethylSulfide]	0.16 kcal/mol
C	0.09 kcal/mol

input: Report Arrow error, nothing else, for this molecule: `c1ccncc1`
output: 0.08 kcal/mol

input: Report Arrow error, nothing else, for this molecule: `C=CCC`
output: 0.25 kcal/mol

input: Report Arrow error, nothing else, for this molecule: `CCCO`
output: 0.18 kcal/mol

input: Report Arrow error, nothing else, for this molecule: `Nc1ccccc1`
output: 0.06 kcal/mol

input: Report Arrow error, nothing else, for this molecule: `CNC`
output: 0.23 kcal/mol

====

Experiment: Free energy of hydration by COSMO implicit solvent model (MolPro ver. 2012)
Conditions: absolute error vs Exp (hydration)
recorded_endpoint: COSMO/Molpro Error (kcal/mol)
The response must be a number in kcal/mol with no trailing unit.

input: Report COSMO/Molpro Error, nothing else, for this compound: CSC [DiMethylSulfide]
output: 2.61

input: Report COSMO/Molpro Error, nothing else, for this compound: CCC(=O)O [propionicacid]
output: 2.03

input: Report COSMO/Molpro Error, nothing else, for this compound: C=CCCC [pent-1-ene]
output: 3.57

input: Report COSMO/Molpro Error, nothing else, for this compound: CC(C)C [Isobutane]
output: 2.28

input: Report COSMO/Molpro Error, nothing else, for this compound: C [Methane]
output: 2.35
